Give measured IC50 for each item. Keep answers brief.
# Test system: HL-60
# experiment-description: Cytotoxicity against human HL60 cells after 72 hrs by XTT assay
# Assay type: functional, cell-based
# condition-description: HL-60, 72 h
One number for each entry, in nM.

Here is how some compounds turned out for IC50.
compound: C=C(c1cc(OC)c(OC)c(OC)c1)c1ccc2ccccc2c1
unit-descriptor: nM
IC50: 910

compound: COc1ccc(C(=O)c2ccc(OC)c(OC)c2OC)cc1
unit-descriptor: nM
IC50: 2000

Give IC50 for each of the items listed below.
1. COc1ccc(C(=O)c2cc(OC)c(OC)c(OC)c2)cc1O [PHENSTATIN]
2. C=C(c1ccc(OC)c([N+](=O)[O-])c1)c1ccc(OC)c(OC)c1OC

result:
1. 31
2. 2600

###

I'd appreciate it if you could supply inhibition values for the items below.
# Species: Bos taurus
# experiment-description: Inhibition of calf brain tubulin polymerization at 20 uM after 20 mins by turbidimetric method
One number for each entry, in %.

Some entries whose results are on file:
molecule: COc1ccc(C(=O)c2ccc(OC)c(OC)c2OC)cc1
inhibition (%): 7
--
molecule: C=C(c1ccc(OC)c(N)c1)c1ccc(OC)c(OC)c1OC
inhibition (%): 32
--
molecule: COc1ccc(C(O)c2ccc3ccccc3c2)c(OC)c1OC (stereo unspecified)
inhibition (%): 0
--
molecule: CCn1ccc2cc(C(O)c3ccc(OC)c(OC)c3OC)ccc21 (stereo unspecified)
inhibition (%): 0
--
molecule: CCn1ccc2cc(C(O)c3cc(OC)c(OC)c(OC)c3)ccc21 (stereo unspecified)
inhibition (%): 41
--
molecule: COc1ccc(C(=O)c2ccc3ccccc3c2)c(OC)c1OC
inhibition (%): 4
--
molecule: CCn1ccc2cc(C(=O)c3cc(OC)c(OC)c(OC)c3)ccc21
inhibition (%): 95
--
molecule: C=C(c1ccc2ccccc2c1)c1ccc(OC)c(OC)c1OC
inhibition (%): 11
--
molecule: COc1cc(C(O)c2ccc3c(ccn3C)c2)cc(OC)c1OC (stereo unspecified)
inhibition (%): 86
--
molecule: COc1ccc(C(=O)c2ccc3c(ccn3C)c2)c(OC)c1OC
inhibition (%): 40

Hello, I would appreciate it if you could give inhibition for each entry below.
1. C=C(c1ccc(OC)c(O)c1)c1ccc(OC)c(OC)c1OC
2. COc1ccc(C(=O)c2cc(OC)c(OC)c(OC)c2)cc1
3. CCn1ccc2cc(C(=O)c3ccc(OC)c(OC)c3OC)ccc21
4. C=C(c1ccc(OC)c([N+](=O)[O-])c1)c1ccc(OC)c(OC)c1OC
5. C=C(c1cc(OC)c(OC)c(OC)c1)c1ccc2c(ccn2CC)c1
6. COc1ccc(C(=O)c2cc(OC)c(OC)c(OC)c2)cc1[N+](=O)[O-]

result:
1: 86; 2: 20; 3: 47; 4: 12; 5: 83; 6: 12

###

# Test system: HL-60
# experiment-description: Cytotoxicity against human HL60 cells after 72 hrs by XTT assay
# Format: functional, cell-based
# condition-description: HL-60, 72 h
metric-name: IC50

// worked examples, IC50 included
compound: COc1ccc(C(=O)c2cc(OC)c(OC)c(OC)c2)cc1[N+](=O)[O-]
observed-measurement: 1800 nM
//
compound: C=C(c1ccc(OC)cc1)c1ccc(OC)c(OC)c1OC
observed-measurement: 480 nM
//
compound: COc1ccc(C(=O)c2ccc3ccccc3c2)c(OC)c1OC
observed-measurement: 3300 nM
//
compound: COc1ccc(/C=C\c2cc(OC)c(OC)c(OC)c2)cc1O [COMBRETASTATIN A4]
observed-measurement: 2 nM
//
compound: C=C(c1ccc(OC)c(N)c1)c1ccc(OC)c(OC)c1OC
observed-measurement: 230 nM
//
compound: C=C(c1ccc(OC)c(O)c1)c1ccc(OC)c(OC)c1OC
observed-measurement: 240 nM
//
compound: COc1cccc2c1C(=O)c1c(O)c3c(c(O)c1C2=O)C[C@@](O)(C(=O)CO)C[C@@H]3O[C@H]1C[C@H](N)[C@H](O)[C@H](C)O1 [DOXORUBICIN]
observed-measurement: 27 nM
//
compound: COc1ccc(C(=O)c2cc(OC)c(OC)c(OC)c2)cc1N
observed-measurement: 30 nM
//
compound: COc1ccc(C(=O)c2cc(OC)c(OC)c(OC)c2)cc1
observed-measurement: 270 nM

// IC50 value for CCn1ccc2cc(C(O)c3cc(OC)c(OC)c(OC)c3)ccc21 (stereo not given) : < 1000 nM
